Test: Measurement of logP values by HPLC on reversed phase columns (EEC directive 79/831 Annex V.A8)
Type: physicochemical
Conditions: pH 2.7, 0.1% formic acid in water / acetonitrile gradient 10% to 95%
readout: logp

- compound: "Cc1ccc(C(=NOCc2cccc(NC(=O)CC(C)C)n2)c2nnnn2C)cc1C(F)(F)F [Example 43]"
  endpoint-value: 4.16
- compound: "COc1cccc(CC(=O)Nc2cccc(CON=C(c3ccc(F)c(C)c3)c3nnnn3C)n2)c1"
  endpoint-value: 3.72
- compound: "CCCCCC(=O)Nc1cccc(CON=C(c2cccc(C)c2F)c2nnnn2C)n1"
  endpoint-value: 3.96
- compound: "C#CCCOC(=O)Nc1cccc(CON=C(c2ccc(F)c(C)c2)c2nnnn2C)n1"
  endpoint-value: 3.55

###

Assay: Measurement of logP values by HPLC on reversed phase columns (EEC directive 79/831 Annex V.A8)
Type: physicochemical
Settings: pH 2.7, 0.1% formic acid in water / acetonitrile gradient 10% to 95%
// Log p lookup, one value per entry

- molecule: "Cn1nnnc1C(=NOCc1csc(NC(=O)C(C)(C)C)n1)c1ccc(F)c(Oc2ccccc2)c1 [Example 147]"
  Log p: 4.05
- molecule: "CCCC(=O)Nc1nc(CON=C(c2ccc(F)c(Oc3ccccc3)c2)c2nnnn2C)cs1 [Example 146]"
  Log p: 3.35
- molecule: "Cc1cc(F)cc(C(=NOCc2cccc(NC(=O)CC(C)C)n2)c2nnnn2C)c1 (single isomer, unassigned) [Example 158]"
  Log p: 3.76
- molecule: "Cc1cc(C(=NOCc2cccc(N)n2)c2nnnn2C)ccc1F [Example 159]"
  Log p: 1.50
- molecule: "Cc1nc(N)cc(CON=C(c2ccc(F)c(Oc3ccccc3)c2)c2nnn(C)n2)n1 [Example 139]"
  Log p: 1.73
- molecule: "Cc1cc(C(=NOCc2csc(C#CCCCc3ccccc3)n2)c2nnnn2C)ccc1F [Example 155]"
  Log p: 5.32
- molecule: "Cn1nnnc1C(=NOCc1cccc(N)n1)c1ccc(C(F)(F)F)cc1F (single isomer, unassigned) [Example 142]"
  Log p: 1.72
- molecule: "Cn1nnnc1C(=NOCc1cccc(N)n1)c1ccc(C(F)(F)F)c(Cl)c1 [Example 134]"
  Log p: 1.9
- molecule: "Cc1ccc(C(=NOCc2cccc(N)n2)c2nnnn2C)cc1C(F)(F)F [Example 162]"
  Log p: 2.10
- molecule: "Cc1cccc(C(=NOCc2cccc(N)n2)c2nnnn2C)c1F [Example 138]"
  Log p: 1.42
- molecule: "Cc1cc(F)cc(C(=NOCc2cccc(N)n2)c2nnnn2C)c1 [Example 135]"
  Log p: 1.46
- molecule: "Cn1nnnc1C(=NOCc1csc(NC(=O)C2CC2)n1)c1ccc(F)c(Oc2ccccc2)c1 [Example 148]"
  Log p: 3.48
- molecule: "Cn1nnnc1C(=NOCc1cccc(N)n1)c1cccc(C(F)(F)F)c1F (single isomer, unassigned) [Example 144]"
  Log p: 1.65
- molecule: "Cn1nnnc1C(=NOCc1cccc(N)n1)c1cc(C(F)(F)F)ccc1Cl [Example 133]"
  Log p: 1.72
- molecule: "Cc1ccc(F)c(C(=NOCc2cccc(N)n2)c2nnnn2C)c1 [Example 136]"
  Log p: 1.4
- molecule: "Cn1nnnc1C(=NOCc1csc(N)n1)c1ccc(F)c(Oc2ccccc2)c1 [Example 149]"
  Log p: 2.25
- molecule: "CCCCC#Cc1nc(CON=C(c2ccc(F)c(C)c2)c2nnnn2C)cs1 [Example 152]"
  Log p: 4.78

These entries and their values trace back to patent US20100286173A1.
